B1: ETS1 (parent)
chain: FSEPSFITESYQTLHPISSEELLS

variants of: B1; assay: protein stability index of a GFP-peptide fusion (GPS, HEK-293T) (PSI 1-6); higher = more stable; conditions: c terminus: a fixed tail appended;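 note: lentivirally expressed fusions sorted by FACS into six bins by GFP to DsRed ratio, PSI derived from sequencing read proportions per bin multiplied by bin number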
So basically: protein stability index at 2 or higher? That is 1 (yes). Lower than 2? That is 0 (no).

Field: example entries. Status: answers known.
> print(dat)
                          sequence    label
1  FSEPSFITESTQTLHPISSEELLS [Y11T]  1 (yes)
2  FSEPSFITESYQTLHPISSEELSS [L23S]  1 (yes)
3  FSEPSFITESYQTLHPISSEELPS [L23P]  1 (yes)
4   FSEPQFITESYQTLHPISSEELLS [S5Q]   0 (no)
5   FSEPCFITESYQTLHPISSEELLS [S5C]   0 (no)

Q: Check if protein stability index >= 2 (inclusive). Item: FSYPSFITESYQTLHPISSEELLS [E3Y]
A: 1 (yes)

Q: Cool, now FSEPSFITESYQTLHPISLEELLS [S19L]
A: 0 (no)

Q: Subsequent entry: FSEPSFITESYKTLHPISSEELLS [Q12K]
A: 0 (no)

Q: Now try FSEPSEITESYQTLHPISSEELLS [F6E] .
A: 1 (yes)

Q: Try this variant too: FSEPSFITESYQTLHPISSGELLS [E20G]
A: 0 (no)

Q: Moving on to FSEPSFITESPQTLHPISSEELLS [Y11P]
A: 1 (yes)

Q: One more variant: FSIPSFITESYQTLHPISSEELLS [E3I]
A: 0 (no)

Measured values drawn from the supplement of paper PMC10567573 for this set.
